# reported IC50; entries follow
biological target: NS3 (Hepatitis C virus, UniProt A3EZJ3); assay: Inhibitory concentration against Hepatitis C virus serine protease; parameters: species or system Hepacivirus hominis
Sequence (A3EZJ3 whole entry): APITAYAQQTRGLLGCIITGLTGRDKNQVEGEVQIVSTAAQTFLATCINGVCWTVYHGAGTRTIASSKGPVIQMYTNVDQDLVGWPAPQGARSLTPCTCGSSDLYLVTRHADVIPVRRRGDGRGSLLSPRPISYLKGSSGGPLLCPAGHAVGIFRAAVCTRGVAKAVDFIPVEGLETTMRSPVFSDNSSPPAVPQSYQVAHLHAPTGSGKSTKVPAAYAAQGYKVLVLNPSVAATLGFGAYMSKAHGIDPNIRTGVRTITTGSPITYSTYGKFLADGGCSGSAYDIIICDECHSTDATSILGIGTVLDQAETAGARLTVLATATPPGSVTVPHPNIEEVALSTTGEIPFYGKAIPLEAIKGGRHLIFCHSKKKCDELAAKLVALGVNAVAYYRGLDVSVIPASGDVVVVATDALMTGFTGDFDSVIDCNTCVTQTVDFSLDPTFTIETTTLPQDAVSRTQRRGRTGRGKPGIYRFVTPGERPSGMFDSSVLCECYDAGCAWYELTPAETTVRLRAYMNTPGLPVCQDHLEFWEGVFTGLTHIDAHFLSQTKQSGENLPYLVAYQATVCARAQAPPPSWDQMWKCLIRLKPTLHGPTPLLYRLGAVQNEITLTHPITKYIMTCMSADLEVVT
*1 amine or outer side, *2 acyl side, *3 side chain or, on linkers, in order; H or OH if unused. Where a SMILES comes first, the peptide text is derived from it. [ ]: non-standard residue; d: D form. The star is where a group is joined. NH(1S-phenylethyl) = C[C@H](N*)c1ccccc1; Hyp = O=C(O)[C@@H]1C[C@@H](O)CN1; X12 = CCCN(N*)C(=O)NN(C)c1ccccc1; azaNva = CCCN(N[*:1])C(=O)[*:2]; AzaAla = CN(N[*:1])C(=O)[*:2]; X4 = C[C@H](N*)c1ccc(Br)cc1; Bn = c1ccc(C*)cc1
measured_attribute: IC50 (nM)

CC[C@H](C)[C@H](NC(=O)[C@@H](CCC(=O)O)NC(=O)[C@H](CC(=O)O)NC(C)=O)C(=O)N[C@H](C(=O)N1C[C@H](OCc2ccccc2)C[C@H]1C(=O)NN(C)C(=O)N[C@@H](C)c1ccccc1)C(C)C (Ac-D[dE]IV[Hyp](Bn)[AzaAla]-{NH(1S-phenylethyl)}) = 430
CCCN(NC(=O)[C@@H]1C[C@@H](OCc2ccccc2)CN1C(=O)[C@@H](NC(=O)[C@@H](NC(=O)[C@@H](CCC(=O)O)NC(=O)[C@H](CC(=O)O)NC(C)=O)[C@@H](C)CC)C(C)C)C(=O)N[C@@H](C)c1ccc(Br)cc1 (Ac-D[dE]IV[Hyp](Bn)[azaNva]-X4) = 72
CCC(CC)N(NC(=O)[C@@H]1C[C@@H](OCc2ccccc2)CN1C(=O)[C@@H](NC(=O)[C@@H](NC(=O)[C@@H](CCC(=O)O)NC(=O)[C@H](CC(=O)O)NC(C)=O)[C@@H](C)CC)C(C)C)C(=O)N[C@@H](C)c1ccccc1 = 4100
CCCN(NC(=O)[C@@H]1C[C@@H](OCc2ccccc2)CN1C(=O)[C@@H](NC(=O)[C@@H](NC(=O)[C@@H](CCC(=O)O)NC(=O)[C@H](CC(=O)O)NC(C)=O)[C@@H](C)CC)C(C)C)C(=O)NN(C)c1ccccc1 (Ac-D[dE]IV[Hyp](Bn)-X12) = 480

---

target: NS3 (Hepatitis C virus, UniProt A3EZJ3); experiment: Inhibitory concentration against Hepatitis C virus serine protease; set-up: species or system Hepacivirus hominis
pIC50: −log10 of the molar value. *1 amine or outer side, *2 acyl side, *3 side chain or, on linkers, in order; H or OH if unused. Where a SMILES comes first, the peptide text is derived from it. [ ]: non-standard residue; d: D form. The star is where a group is joined. Hyp = O=C(O)[C@@H]1C[C@@H](O)CN1; azaNva = CCCN(N[*:1])C(=O)[*:2]; X3 = C[C@H](N*)c1cccc2ccccc12; X7 = CCCN(N*)C(=O)OCc1ccccc1; Bn = c1ccc(C*)cc1
measured_attribute: pIC50

CCCN(NC(=O)[C@@H]1C[C@@H](OCc2ccccc2)CN1C(=O)[C@@H](NC(=O)[C@@H](NC(=O)[C@@H](CCC(=O)O)NC(=O)[C@H](CC(=O)O)NC(C)=O)[C@@H](C)CC)C(C)C)C(=O)N[C@@H](C)c1cccc2ccccc12 (Ac-D[dE]IV[Hyp](Bn)[azaNva]-X3) = 6.31
CCC[C@@H](NC(=O)[C@@H]1C[C@@H](OCc2ccccc2)CN1C(=O)[C@@H](NC(=O)[C@@H](NC(=O)[C@@H](CCC(=O)O)NC(=O)[C@H](CC(=O)O)NC(C)=O)[C@@H](C)CC)C(C)C)C(=O)O = 4.47
CCC[C@H](NC(=O)[C@@H]1C[C@@H](OCc2ccccc2)CN1C(=O)[C@@H](NC(=O)[C@@H](NC(=O)[C@@H](CCC(=O)O)NC(=O)[C@H](CC(=O)O)NC(C)=O)[C@@H](C)CC)C(C)C)C(=O)O = 6.22
CC[C@H](C)[C@H](NC(=O)[C@@H](CCC(=O)O)NC(=O)[C@H](CC(=O)O)NC(C)=O)C(=O)N[C@H](C(=O)N1C[C@H](OCc2ccccc2)C[C@H]1C(=O)NN(CC)C(=O)N[C@@H](C)c1ccccc1)C(C)C = 7.07
CCCN(NC(=O)[C@@H]1C[C@@H](OCc2ccccc2)CN1C(=O)[C@@H](NC(=O)[C@@H](NC(=O)[C@@H](CCC(=O)O)NC(=O)[C@H](CC(=O)O)NC(C)=O)[C@@H](C)CC)C(C)C)C(=O)OCc1ccccc1 (Ac-D[dE]IV[Hyp](Bn)-X7) = 6.10

---

molecular target: NS3 (Hepatitis C virus, UniProt A3EZJ3); test: Inhibitory concentration against Hepatitis C virus serine protease; design: species or system Hepacivirus hominis
*1 amine or outer side, *2 acyl side, *3 side chain or, on linkers, in order; H or OH if unused. Where a SMILES comes first, the peptide text is derived from it. [ ]: non-standard residue; d: D form. The star is where a group is joined. NH(1S-phenylethyl) = C[C@H](N*)c1ccccc1; X8 = O=C(N(CC(F)(F)F)N[*:1])[*:2]; Hyp = O=C(O)[C@@H]1C[C@@H](O)CN1; X5 = CC(C)CCN(N[*:1])C(=O)[*:2]; azaNva = CCCN(N[*:1])C(=O)[*:2]; NMe(benzyl) = CN(Cc1ccccc1)*; X14 = C[C@H](N*)c1nnn[nH]1; Bn = c1ccc(C*)cc1
Quick reference for IC50 among some compounds
measured_attribute: IC50 (µM)

CC[C@H](C)[C@H](NC(=O)[C@@H](CCC(=O)O)NC(=O)[C@H](CC(=O)O)NC(C)=O)C(=O)N[C@H](C(=O)N1C[C@H](OCc2ccccc2)C[C@H]1C(=O)NN(CCC(C)C)C(=O)N[C@@H](C)c1ccccc1)C(C)C (Ac-D[dE]IV[Hyp](Bn)[X5]-{NH(1S-phenylethyl)}) = 5.7
CC[C@H](C)[C@H](NC(=O)[C@@H](CCC(=O)O)NC(=O)[C@H](CC(=O)O)NC(C)=O)C(=O)N[C@H](C(=O)N1C[C@H](OCc2ccccc2)C[C@H]1C(=O)NN(CC(F)(F)F)C(=O)N[C@@H](C)c1ccccc1)C(C)C (Ac-D[dE]IV[Hyp](Bn)[X8]-{NH(1S-phenylethyl)}) = 0.34
CCCN(NC(=O)[C@@H]1C[C@@H](OCc2ccccc2)CN1C(=O)[C@@H](NC(=O)[C@@H](NC(=O)[C@@H](CCC(=O)O)NC(=O)[C@H](CC(=O)O)NC(C)=O)[C@@H](C)CC)C(C)C)C(=O)N[C@@H](C)c1nnn[nH]1 (Ac-D[dE]IV[Hyp](Bn)[azaNva]-X14) = 0.86
CCCN(NC(=O)[C@@H]1C[C@@H](OCc2ccccc2)CN1C(=O)[C@@H](NC(=O)[C@@H](NC(=O)[C@@H](CCC(=O)O)NC(=O)[C@H](CC(=O)O)NC(C)=O)[C@@H](C)CC)C(C)C)C(=O)N(C)Cc1ccccc1 (Ac-D[dE]IV[Hyp](Bn)[azaNva]-{NMe(benzyl)}) = 8.4

---

biological target: NS3 (Hepatitis C virus); test: Inhibitory concentration against Hepatitis C virus serine protease; parameters: species or system Hepacivirus hominis
*1 amine or outer side, *2 acyl side, *3 side chain or, on linkers, in order; H or OH if unused. Where a SMILES comes first, the peptide text is derived from it. [ ]: non-standard residue; d: D form. The star is where a group is joined. Hyp = O=C(O)[C@@H]1C[C@@H](O)CN1; azaNva = CCCN(N[*:1])C(=O)[*:2]; X6 = CCCN(N*)C(=S)NCc1ccccc1; X13 = c1ccc2c(c1)CCN2*; NHBn = c1ccc(CN*)cc1; X2 = CCCN(N*)C(N)=O; Bn = c1ccc(C*)cc1
Items are presented alongside their recorded IC50.
measured_attribute: IC50 (µM)

CCCN(NC(=O)[C@@H]1C[C@@H](OCc2ccccc2)CN1C(=O)[C@@H](NC(=O)[C@@H](NC(=O)[C@@H](CCC(=O)O)NC(=O)[C@H](CC(=O)O)NC(C)=O)[C@@H](C)CC)C(C)C)C(N)=O (Ac-D[dE]IV[Hyp](Bn)-X2) = 17.5
CCCN(NC(=O)[C@@H]1C[C@@H](OCc2ccccc2)CN1C(=O)[C@@H](NC(=O)[C@@H](NC(=O)[C@@H](CCC(=O)O)NC(=O)[C@H](CC(=O)O)NC(C)=O)[C@@H](C)CC)C(C)C)C(=O)NCc1ccccc1 (Ac-D[dE]IV[Hyp](Bn)[azaNva]-NHBn) = 0.59
CCCN(NC(=O)[C@@H]1C[C@@H](OCc2ccccc2)CN1C(=O)[C@@H](NC(=O)[C@@H](NC(=O)[C@@H](CCC(=O)O)NC(=O)[C@H](CC(=O)O)NC(C)=O)[C@@H](C)CC)C(C)C)C(=O)N1CCc2ccccc21 (Ac-D[dE]IV[Hyp](Bn)[azaNva]-X13) = 4.4
CCCN(NC(=O)[C@@H]1C[C@@H](OCc2ccccc2)CN1C(=O)[C@@H](NC(=O)[C@@H](NC(=O)[C@@H](CCC(=O)O)NC(=O)[C@H](CC(=O)O)NC(C)=O)[C@@H](C)CC)C(C)C)C(=S)NCc1ccccc1 (Ac-D[dE]IV[Hyp](Bn)-X6) = 4.2
